System: SK-MEL-28 melanoma
Experiment: NCI tumour cell line growth inhibition, 48 h; in the data active = GI50 below about 0.43 µM; inactive = the rest
Result category, one only: yes (1) for active, no (0) for inactive

Ask | Please share the test call associated with O=C1c2ccccc2C(=O)c2c1c(NCCNCCO)c1cc[nH]c1c2NCCNCCO .
Reply | no (0)

Ask | Please share the test call associated with COc1cccc2c1C(=O)c1c(O)c3c(c(O)c1C2=O)C[C@@](O)(C(=O)COC(=O)c1cccnc1)C[C@@H]3OC1CC(N)C(O)C(C)O1 (stereo not given in full) .
Reply | yes (1)

Ask | Please share the test call associated with CC(=O)OC1C(O)COC(Oc2c(C)c3c4c(c2O)[C@@H](C)CC[C@@H]4[C@@H](C)C[C@H]3C=C(C)C)C1O (stereo not given in full) .
Reply | no (0)

Ask | Please share the test call associated with CCCCCn1ncc(-c2c(O)c(O)cc3c(O)c(-c4c(C)cc5c(-c6cnn(CCCCC)n6)c(O)c(O)cc5c4O)c(C)cc23)n1 .
Reply | yes (1)

Ask | Please share the test call associated with CCN(CCc1ccc(F)cc1)c1ccc(CO)c(Cl)c1 .
Reply | no (0)

====

Tested on: MOLT-4 leukemia
Test: NCI tumour cell line growth inhibition, 48 h
measurement_type: TGI

Ask | Given CCCCCn1ncc(-c2c(O)c(O)cc3c(O)c(-c4c(C)cc5c(-c6cnn(CCCCC)n6)c(O)c(O)cc5c4O)c(C)cc23)n1 , state its recorded TGI.
Reply | 8.28 µM

Ask | Given NC(N)=NS(=O)(=O)c1ccc(NC(=O)c2ccc(Cl)c3c(Nc4ccc(S(=O)(=O)N=C(N)N)cc4)c4ccccc4nc23)cc1 , state its recorded TGI.
Reply | > 100 µM

Ask | Given CCOP(=O)(C/C(=N/NC(C)(C)C)C(=O)Nc1nc2ccc(C)cc2s1)OCC , state its recorded TGI.
Reply | > 100 µM

Ask | Given Nc1nc(SCCC/C=C/B(O)O)nc2c1ncn2C1OC(CO)C(O)C1O (centres undefined) , state its recorded TGI.
Reply | > 243 µM

Ask | Given N#CC(C(=N/NC(N)=S)/C(=N\NC(N)=S)C(C#N)c1ccccc1)c1ccccc1 (centres undefined) , state its recorded TGI.
Reply | > 10 µM

Ask | Given COc1cc2c(c(OC)c1OC)C(=O)c1c-2n(CCCN)c(=O)c2cc([N+](=O)[O-])ccc12 , state its recorded TGI.
Reply | 19.1 µM

Ask | Given C/C(=C\c1ccccc1)C(O)S(=O)(=O)O (centres undefined) , state its recorded TGI.
Reply | > 100 µM

Ask | Given O=c1[nH]ncc2[nH]c3c(c12)CCCc1ccccc1-3 , state its recorded TGI.
Reply | > 100 µM

Ask | Given COc1cc(C(CN)N(C)C)cc(OC)c1OC (centres undefined) , state its recorded TGI.
Reply | > 100 µM

Ask | Given O=C(O)c1cc2c3c(c1)[C@H]1C=CC[C@H]1CN3CC1CC=CC21 (some centres undefined) , state its recorded TGI.
Reply | > 100 µM

Ask | Given CNC(=O)OC(C)CN1c2ccccc2Sc2ccccc21 (centres undefined) , state its recorded TGI.
Reply | > 100 µM

Ask | Given CCOC(=O)NC(=O)c1cn(-c2ccc(CCOC(=O)CCCCCCCCC(=O)OCCc3ccc(-n4cc(C(=O)NC(=O)OCC)c(=O)[nH]c4=O)cc3)cc2)c(=O)[nH]c1=O , state its recorded TGI.
Reply | > 100 µM

Ask | Given COc1ccc2c3c([nH]c2c1[N+](=O)[O-])C(C)N(C(=O)/C=C/c1ccccc1)CC3 (centres undefined) , state its recorded TGI.
Reply | > 100 µM

Ask | Given CN([N-]C(=O)CC(=O)[N-]N(C)C(=S)c1ccccc1)C(=S)c1ccccc1.[Cu+2] , state its recorded TGI.
Reply | 0.22 µM

Ask | Given COc1ccc(-n2c(C)nc3ccc(N=Cc4ccccc4)cc3c2=O)cc1 , state its recorded TGI.
Reply | > 100 µM

Ask | Given C/C=C1/CN2CC[C@@H]3c4ccccc4N4[C@H](C(=O)OC)[C@H]1C[C@H]2[C@]34/C=C/C1=COC[C@@H]2[C@H]1C[C@H]1c3c(c4ccccc4n3C)C[C@@H]2N1C , state its recorded TGI.
Reply | 13.4 µM

Ask | Given COc1ccc(CNCCCN2C(=O)c3ccc4c5c(ccc(c35)C2=O)C(=O)N(CCCNCCCCNCCCN)C4=O)c(OC)c1OC , state its recorded TGI.
Reply | 15.6 µM

Ask | Given Nc1nonc1-c1noc(-c2nonc2N)[n+]1[O-] , state its recorded TGI.
Reply | > 100 µM

Ask | Given C=CCCC12CCCC(=O)C1Sc1ccc3ccccc3c12 (centres undefined) , state its recorded TGI.
Reply | 39.6 µM

====

Test system: HCT-15 colon
Experiment: NCI tumour cell line growth inhibition, 48 h
measurement_type: TGI

Ask | Given CCOc1ccc2c(-c3ccnc(Nc4cccc(C(F)(F)F)c4)n3)cnn2n1 , state its recorded TGI.
Reply | > 25 µM

Ask | Given CN([N-]C(=O)CC(=O)[N-]N(C)C(=S)c1ccccc1)C(=S)c1ccccc1.[Cu+2] , state its recorded TGI.
Reply | 0.13 µM

Ask | Given COc1cc2c(cc1OC)C(C1(O)CCCCC1)NCC2 (stereo not drawn) , state its recorded TGI.
Reply | > 100 µM

====

Test system: PC-3 prostate
Assay: NCI tumour cell line growth inhibition, 48 h
measurement_type: TGI

Ask | Given COc1cc([N+](=O)[O-])c(S(=O)(=O)O)cc1-n1nc(-c2ccccc2)n[n+]1-c1cc(S(=O)(=O)[O-])c([N+](=O)[O-])cc1OC , state its recorded TGI.
Reply | > 100 µM

Ask | Given CC(=O)OCC1OC(Sc2nc(-c3ccc(C)cc3)c(C#N)c(=O)n2C2OC(COC(C)=O)C(OC(C)=O)C(OC(C)=O)C2OC(C)=O)C(OC(C)=O)C(OC(C)=O)C1OC(C)=O (stereo not drawn) , state its recorded TGI.
Reply | > 100 µM

Ask | Given COC(=O)C1=C(O)C(C(=O)OC)[C@@]2(O)[C@@H](C(=O)OC)C(c3ccc(OC(=O)/C(=C/c4ccccc4)c4ccccc4)cc3)C[C@@H]1[C@@H]2C(=O)OC (stereo partly drawn) , state its recorded TGI.
Reply | > 100 µM

Ask | Given CC1(C)C2CCC1(C)C(NC(=O)CCN1CCOCC1)C2 (stereo not drawn) , state its recorded TGI.
Reply | > 100 µM

Ask | Given O=C1C=CC(=O)c2c(O)c(Nc3ccc(OC(F)(F)F)cc3)c(Cl)c(O)c21 , state its recorded TGI.
Reply | 9.62 µM

Ask | Given CCCC/C=C1\CCC(CN2CCOCC2)C1=O (stereo not drawn) , state its recorded TGI.
Reply | 26.2 µM

Ask | Given N=C(N)SC1c2ccccc2-c2cc([N+](=O)[O-])ccc21 (stereo not drawn) , state its recorded TGI.
Reply | 13.8 µM

Ask | Given O=C(Nc1ccccc1)N1CC(CN2CCN(c3ccccc3)CC2)OC1=O (stereo not drawn) , state its recorded TGI.
Reply | > 100 µM

Ask | Given Cn1c2nc(=Nc3ccc(Cl)cc3)n3ccc4ccccc4c3c2c(=O)n1-c1ccccc1 , state its recorded TGI.
Reply | > 100 µM

Ask | Given Cc1nnc2nc(-c3ccc(Cl)cc3Cl)cc(-c3ccc(Cl)cc3)n12 , state its recorded TGI.
Reply | > 100 µM

Ask | Given COc1cc(CSc2ccc(O)cc2)cc(O)c1O , state its recorded TGI.
Reply | > 100 µM

Ask | Given CCOc1ccc2c(-c3ccnc(Nc4cccc(C(F)(F)F)c4)n3)cnn2n1 , state its recorded TGI.
Reply | > 25 µM

Ask | Given C/C=C1/CN2CC[C@@H]3c4ccccc4N4[C@H](C(=O)OC)[C@H]1C[C@H]2[C@]34/C=C/C1=COC[C@@H]2[C@H]1C[C@H]1c3c(c4ccccc4n3C)C[C@@H]2N1C , state its recorded TGI.
Reply | 6.09 µM

Ask | Given N#C/C(=C/c1cccs1)c1cccs1 , state its recorded TGI.
Reply | > 100 µM

Ask | Given CC(C)(C)OC(=O)N(CCCn1c2c(c3ccccc3c1=O)C(=O)c1ccccc1-2)CCN(CCCn1c2c(c3ccccc3c1=O)C(=O)c1ccccc1-2)C(=O)OC(C)(C)C , state its recorded TGI.
Reply | > 50 µM

Ask | Given CNC(=O)OC(C)CN1c2ccccc2Sc2ccccc21 (stereo not drawn) , state its recorded TGI.
Reply | > 100 µM

Ask | Given NC(Cc1ccc2oc3cc(=O)c4ccccc4c-3nc2c1)C(=O)O (stereo not drawn) , state its recorded TGI.
Reply | > 100 µM

Ask | Given COc1cc2c(c(OC)c1OC)C(=O)c1c-2n(CCCN)c(=O)c2cc([N+](=O)[O-])ccc12 , state its recorded TGI.
Reply | 3.43 µM
